This listing pairs compounds with measured IC50.
# assayed.target: Recombinant human c-Cbl (aa 47-435) (Homo sapiens)
# Sequence (P22681 47-435): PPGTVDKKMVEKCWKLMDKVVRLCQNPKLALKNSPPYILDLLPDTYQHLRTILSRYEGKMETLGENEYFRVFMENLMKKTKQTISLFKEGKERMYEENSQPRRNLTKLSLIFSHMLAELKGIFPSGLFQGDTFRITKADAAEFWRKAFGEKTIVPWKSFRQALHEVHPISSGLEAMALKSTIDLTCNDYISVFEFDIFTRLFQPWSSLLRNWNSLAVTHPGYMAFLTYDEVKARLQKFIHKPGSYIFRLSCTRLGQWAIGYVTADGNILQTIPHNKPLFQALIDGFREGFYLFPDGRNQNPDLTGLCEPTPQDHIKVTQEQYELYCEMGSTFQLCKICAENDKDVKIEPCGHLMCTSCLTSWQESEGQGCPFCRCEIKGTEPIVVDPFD
# procedure.summary: c-Cbl Biochemical Assay (TR-FRET)
# run.parameters: hc-Cbl Biochemical Assay (TR-FRET); read-out: TR-FRET hcCbl IC50

INSERT INTO results (compound_structure, assayed_target, readout_type, reported_result) VALUES
  ('Cc1c(F)c(CO)cc2nc(-c3cc(-c4ccc(F)cc4-c4nncn4C)cc(C4CC4)n3)oc12', 'Recombinant human c-Cbl (aa 47-435) (Homo sapiens)', 'IC50', '1 to 10 µM'),
  ('Cn1cnnc1-c1cc(F)ccc1-c1cccc(-c2nc3cc(CNCC(C)(C)O)ccc3[nH]2)c1', 'Recombinant human c-Cbl (aa 47-435) (Homo sapiens)', 'IC50', '10 to 50 µM'),
  ('CO[C@H]1CCCN(Cc2cc(C(F)(F)F)c3oc(-c4cccc(-c5ccc(F)cc5-c5nncn5C)c4)nc3c2)C1', 'Recombinant human c-Cbl (aa 47-435) (Homo sapiens)', 'IC50', '< 0.2 µM'),
  ('C[C@H]1CCCN(Cc2cc(C(F)(F)F)c3oc(-c4cccc(-c5ccc(F)cc5-c5nncn5C)c4)nc3c2)C1', 'Recombinant human c-Cbl (aa 47-435) (Homo sapiens)', 'IC50', '1 to 10 µM'),
  ('Cn1cnnc1-c1cc(F)ccc1-c1cccc(-c2nc3cc(CN[C@@H]4CC[C@@H]4O)cc(C(F)(F)F)c3o2)c1', 'Recombinant human c-Cbl (aa 47-435) (Homo sapiens)', 'IC50', '< 0.2 µM'),
  ('Cn1cnnc1-c1ccccc1-c1cccc(-c2nc3ccc(OCCN4CCCC4)c(C(F)(F)F)c3[nH]2)c1', 'Recombinant human c-Cbl (aa 47-435) (Homo sapiens)', 'IC50', '10 to 50 µM'),
  ('Cn1cnnc1-c1cc(F)ccc1-c1cccc(-c2nc3ccc(CO)cc3o2)c1', 'Recombinant human c-Cbl (aa 47-435) (Homo sapiens)', 'IC50', '10 to 50 µM');

Kindly consider the entry below.
Task item: Query the reported IC50 for Recombinant human c-Cbl (aa 47-435) (Homo sapiens); item: Cc1cc(CN[C@@H]2CCC[C@@H]2O)c(F)c2nc(-c3cccc(-c4ccc(F)cc4-c4nncn4C)c3)oc12
Reply: < 0.2 µM

###

# assayed.target: Recombinant human Cbl-b (aa 36-427) (Homo sapiens, UniProt Q13191)
# Sequence (Q13191 36-427): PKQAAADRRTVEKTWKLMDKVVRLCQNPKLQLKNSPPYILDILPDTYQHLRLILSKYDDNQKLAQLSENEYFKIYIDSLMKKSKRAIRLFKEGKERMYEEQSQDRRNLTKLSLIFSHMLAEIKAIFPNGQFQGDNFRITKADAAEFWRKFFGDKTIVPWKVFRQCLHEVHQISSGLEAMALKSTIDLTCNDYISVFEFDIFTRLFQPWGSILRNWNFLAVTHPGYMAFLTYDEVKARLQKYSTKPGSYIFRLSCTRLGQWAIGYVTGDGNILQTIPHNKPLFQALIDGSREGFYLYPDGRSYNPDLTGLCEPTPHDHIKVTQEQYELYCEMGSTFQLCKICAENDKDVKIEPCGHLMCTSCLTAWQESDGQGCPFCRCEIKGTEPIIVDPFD
# procedure.summary: Cbl-b Biochemical Assay (TR-FRET)
# run.parameters: read-out: TR-FRET hCbl-b IC50
This listing pairs molecules with measured IC50.

Task item: I would be grateful if you could share the reported IC50 for COC(=O)c1ccc2oc(-c3cccc(-c4ccc(Cl)cc4-c4nncn4C)c3)nc2c1 [ADJ-2] .
Reply: 1 to 10 µM

Task item: I would be grateful if you could share the reported IC50 for Cn1cnnc1-c1cc(F)ccc1-c1cccc(-c2nc3cc(CN4CC[C@H](O)C4)cc(C(F)(F)F)c3o2)c1 [AD-2] .
Reply: < 0.2 µM

###

This listing pairs compounds with measured pIC50.
# assayed.target: Recombinant human Cbl-b (aa 36-427) (Homo sapiens, UniProt Q13191)
# procedure.summary: Cbl-b Biochemical Assay (TR-FRET)
# run.parameters: read-out: TR-FRET hCbl-b IC50
pIC50: −log10 of the molar value.

These recorded examples may help you get a feel for the data.
INSERT INTO measurements (compound, reported_result) VALUES
  ('C[C@H]1CCCN(Cc2cc(C(F)(F)F)c3oc(-c4cccc(-c5ccc(C#N)cc5-c5nncn5C)c4)nc3c2)C1', '> 6.70'),
  ('Cn1cnnc1-c1cc(F)ccc1-c1cccc(-c2nc3cc(NCCN4CC(F)(F)C4)cc(C(F)(F)F)c3o2)c1', '> 6.70'),
  ('Cn1cnnc1-c1cc(F)ccc1-c1cccc(-c2nc3cc(CNCC4(O)CCC4)cc(C4CC4)c3o2)c1', '> 6.70'),
  ('Cn1cnnc1-c1cc(F)ccc1-c1cccc(-c2nc3cc(CNCC4(C#N)CCCC4)cc(C(F)(F)F)c3[nH]2)c1', '> 6.70'),
  ('C[C@@H](N[C@@H]1CCC[C@@H]1O)c1cc(C(F)(F)F)c2oc(-c3cccc(-c4ccc(F)cc4-c4nncn4C)c3)nc2c1', '> 6.70'),
  ('Cn1cnnc1C[C@]1(c2cccc(-c3nc4cccc(C(F)(F)F)c4o3)c2)C[C@H](C#N)C1', '5.00 to 6.00'),
  ('Cn1cnnc1-c1cc(F)ccc1-c1cccc(-c2nc3cc(CN[C@@H]4CCC[C@@H]4O)cc(C(C)(F)F)c3o2)c1', '> 6.70'),
  ('Cn1cnnc1-c1ccccc1-c1cccc(-c2nc3ccc(N)c(C(F)(F)F)c3[nH]2)c1', '4.30 to 5.00');

Task item: I would be grateful if you could share the reported pIC50 for COC(OC)c1ccc2oc(-c3cccc(-c4ccc(F)cc4-c4nncn4C)c3)nc2c1 .
Reply: 4.30 to 5.00

Task item: I would be grateful if you could share the reported pIC50 for Cn1cnnc1-c1cc(F)ccc1-c1cccc(-c2nc3cc(CN[C@H]4CCC[C@@H]4O)cc(C(F)(F)F)c3[nH]2)c1 .
Reply: > 6.70

Task item: I would be grateful if you could share the reported pIC50 for Cn1cnnc1-c1cc(C#N)ccc1-c1cccc(-c2nc3cccc(C(F)(F)F)c3o2)c1 .
Reply: 6.00 to 6.70

###

# assayed.target: Recombinant human Cbl-b (aa 36-427) (Homo sapiens, UniProt Q13191)
# procedure.summary: Cbl-b Biochemical Assay (TR-FRET)
# run.parameters: read-out: TR-FRET hCbl-b IC50
readout.type: IC50

These recorded examples may help you get a feel for the data.
INSERT INTO measurements (molecule, reported_result) VALUES
  ('CO[C@H](C)CNCc1cc(F)c2oc(-c3cc(-c4ccc(F)cc4-c4nncn4C)cc(C4CC4)n3)nc2c1 [AFN-2]', '< 200 nM'),
  ('Cn1cnnc1-c1cc(F)ccc1-c1cccc(-c2nc3cc(CNCC(C)(C)O)ccc3o2)c1 [AO-2]', '< 200 nM'),
  ('COc1cc(CN[C@@H]2CCC[C@@H]2OC)cc2nc(-c3cccc(-c4ccc(F)cc4-c4nncn4C)c3)oc12 [FQ-1]', '200 to 1000 nM'),
  ('CN(Cc1cc(C(F)(F)F)c2oc(-c3cccc(-c4ccc(F)cc4-c4nncn4C)c3)nc2c1)CC1(O)CCC1 [IA-1]', '< 200 nM');

Task item: I would be grateful if you could share the reported IC50 for Cc1cc(CN[C@@H]2CCC[C@@H]2O)cc2nc(-c3cc(-c4ccc(F)cc4-c4nncn4C)cc(C4CC4)n3)oc12 [AEU-2] .
Reply: < 200 nM

Task item: I would be grateful if you could share the reported IC50 for Cn1cnnc1-c1cnn(C)c1-c1cccc(-c2nc3cc(CN[C@H]4CCC[C@@H]4O)cc(C(F)(F)F)c3o2)c1 [AAU-6] .
Reply: 200 to 1000 nM

Task item: I would be grateful if you could share the reported IC50 for COc1cc(CN[C@@H]2CCC[C@@H]2O)cc2nc(-c3cc(-c4ccc(F)cc4-c4nncn4C)cc(C4CC4)n3)oc12 [AEY-2] .
Reply: < 200 nM

Task item: I would be grateful if you could share the reported IC50 for COC[C@@H](C)NCc1cc(C(F)(F)F)c2oc(-c3cccc(-c4ccc(F)cc4-c4nncn4C)c3)nc2c1 [EN-2] .
Reply: < 200 nM

Task item: I would be grateful if you could share the reported IC50 for COc1cc(CO)cc2nc(-c3cc(-c4ccc(F)cc4-c4nncn4C)cc(C4CC4)n3)oc12 [AEX-2] .
Reply: 200 to 1000 nM

Task item: I would be grateful if you could share the reported IC50 for Cn1cnnc1-c1cc(F)ccc1-c1cccc(-c2nc3cc(CN4CC(C)(O)C4)cc(C(F)(F)F)c3[nH]2)c1 [BR-1] .
Reply: < 200 nM

Task item: I would be grateful if you could share the reported IC50 for COCCNCc1cc2nc(-c3cccc(-c4ccc(F)cc4-c4nncn4C)c3)oc2c(F)c1F [IY-1] .
Reply: < 200 nM

Task item: I would be grateful if you could share the reported IC50 for Cn1cnnc1-c1cc(F)ccc1-c1cccc(-c2nc3cc(CNC4CC5(CCC5)C4)cc(C(F)(F)F)c3o2)c1 [FM-2] .
Reply: < 200 nM

Task item: I would be grateful if you could share the reported IC50 for Cn1cnnc1-c1cc(F)ccc1-c1cccc(-c2nc3cc(CN4CC(C)(O)C4)cc(C(F)(F)F)c3o2)c1 [AF-2] .
Reply: < 200 nM

Task item: I would be grateful if you could share the reported IC50 for COC(=O)c1cc(C)c2oc(-c3cc(-c4ccc(F)cc4-c4nncn4C)cc(C4CC4)n3)nc2c1 [AES-3] .
Reply: 1000 to 10000 nM

Task item: I would be grateful if you could share the reported IC50 for Cn1cnnc1-c1cc(F)ccc1-c1cccc(-c2nc3cc(NCCC4CCCC4)cc(C(F)(F)F)c3o2)c1 [HM-3] .
Reply: 1000 to 10000 nM

Source of measurements: patent US20250163038A1
